- System: HeLa Kyoto;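 also: synchronized HeLa Kyoto cells (double thymidine block for G1/S, nocodazole release for mitosis), protein amounts in NP-40 versus SDS lysates quantified by mass spectrometry, three biological replicates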
- ASSAY METHOD TEXT: solubility change mitosis vs G1/S (difference of NP-40 vs SDS log2 ratios) (log2 ratio difference); higher = more soluble in mitosis
OUTCOME MEASURE: solubility change mitosis (log2)

construct_sequence="MACAAVMIPGLLRCSVGAIRIEAASLRLTLSTLRHLTLTSIMKSKRKTDHMERTASVLRREIVSAAKVCGAASESPSVKSLRLLVADQDFSFKAGQWVDFFIPGVSVVGGFSICSSPRLLEQERVIELAVKYTNHPPALWVHNTCTLDCEVAVRVGGEFFFDPQPADASRNLVLIAGGVGINPLLSILRHAADLLREQANKRNGYEIGTIKLFYSAKNTSELLFKKNILDLVNEFPEKIACSLHVTKQTTQINAELKPYITEGRITEKEIRDHISKETLFYICGPPPMTDFFSKQLENNHVPKEHICFEKWW [OXNAD1]" tested_target="HeLa Kyoto" outcome_measure="solubility change mitosis (log2)" result=-0.0113
construct_sequence="MSAFDTNPFADPVDVNPFQDPSVTQLTNAPQGGLAEFNPFSETNAATTVPVTQLPGSSQPAVLQPSVEPTQPTPQAVVSAAQAGLLRQQEELDRKAAELERKERELQNTVANLHVRQNNWPPLPSWCPVKPCFYQDFSTEIPADYQRICKMLYYLWMLHSVTLFLNLLACLAWFSGNSSKGVDFGLSILWFLIFTPCAFLCWYRPIYKAFRSDNSFSFFVFFFVFFCQIGIYIIQLVGIPGLGDSGWIAALSTLDNHSLAISVIMMVVAGFFTLCAVLSVFLLQRVHSLYRRTGASFQQAQEEFSQGIFSSRTFHRAASSAAQGAFQGN [SCAMP2]" tested_target="HeLa Kyoto" outcome_measure="solubility change mitosis (log2)" result=-0.103
construct_sequence="MASLDRVKVLVLGDSGVGKSSLVHLLCQNQVLGNPSWTVGCSVDVRVHDYKEGTPEEKTYYIELWDVGGSVGSASSVKSTRAVFYNSVNGIIFVHDLTNKKSSQNLRRWSLEALNRDLVPTGVLVTNGDYDQEQFADNQIPLLVIGTKLDQIHETKRHEVLTRTAFLAEDFNPEEINLDCTNPRYLAAGSSNAVKLSRFFDKVIEKRYFLREGNQIPGFPDRKRFGAGTLKSLHYD [RABL3]" tested_target="HeLa Kyoto" outcome_measure="solubility change mitosis (log2)" result=-0.0274
